Attribution: ChEMBL document CHEMBL1134564

assayedTarget: Tissue-type plasminogen activator (Homo sapiens, UniProt P00750)
Sequence (P00750 whole entry): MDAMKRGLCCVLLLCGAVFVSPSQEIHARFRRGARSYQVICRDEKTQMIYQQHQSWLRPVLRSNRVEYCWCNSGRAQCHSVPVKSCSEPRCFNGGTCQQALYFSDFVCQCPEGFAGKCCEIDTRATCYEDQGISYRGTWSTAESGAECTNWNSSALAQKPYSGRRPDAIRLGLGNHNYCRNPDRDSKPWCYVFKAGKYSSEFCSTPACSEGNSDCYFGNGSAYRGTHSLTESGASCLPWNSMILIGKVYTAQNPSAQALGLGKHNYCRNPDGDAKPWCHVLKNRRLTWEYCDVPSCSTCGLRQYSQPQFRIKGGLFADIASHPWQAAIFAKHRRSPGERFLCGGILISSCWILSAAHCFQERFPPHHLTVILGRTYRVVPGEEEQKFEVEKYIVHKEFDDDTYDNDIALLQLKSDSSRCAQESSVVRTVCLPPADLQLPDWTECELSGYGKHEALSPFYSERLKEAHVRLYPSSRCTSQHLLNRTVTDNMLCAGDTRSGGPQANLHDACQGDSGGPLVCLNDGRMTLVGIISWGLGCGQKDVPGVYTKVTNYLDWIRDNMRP
protocolDescription: Inhibition of Human Serine Protease tissue type Plasminogen Activator (t-PA).
Below, each of the molecules is paired with its reported log10 Ki value.
testReadout: log10 Ki (log10 of the value in µM)

- smilesRecord: "Cc1ccc(O)c(-c2nc3cc(C(=N)N)ccc3[nH]2)c1"
  assayedTarget: "Tissue-type plasminogen activator (Homo sapiens, UniProt P00750)"
  numericReadout: 2.05
- smilesRecord: "N=C(N)c1ccc2nc(-c3cccc([N+](=O)[O-])c3O)[nH]c2c1"
  assayedTarget: "Tissue-type plasminogen activator (Homo sapiens, UniProt P00750)"
  numericReadout: 1.15
- smilesRecord: "Cc1ccc(-c2nc3ccc(C(=N)N)cc3[nH]2)c(O)c1"
  assayedTarget: "Tissue-type plasminogen activator (Homo sapiens, UniProt P00750)"
  numericReadout: 1.68
- smilesRecord: "Cn1c(-c2cccc(-c3ccccc3)c2O)nc2ccc(C(=N)N)cc21"
  assayedTarget: "Tissue-type plasminogen activator (Homo sapiens, UniProt P00750)"
  numericReadout: 2.18
- smilesRecord: "Cc1cc(Br)c(O)c(-c2nc3ccc(C(=N)N)cc3[nH]2)c1"
  assayedTarget: "Tissue-type plasminogen activator (Homo sapiens, UniProt P00750)"
  numericReadout: 0.38
- smilesRecord: "Cc1cc(Br)c(O)c(-c2cc3cc(C(=N)N)ccc3[nH]2)c1"
  assayedTarget: "Tissue-type plasminogen activator (Homo sapiens, UniProt P00750)"
  numericReadout: -0.34

* * *

assayedTarget: Plasminogen (Homo sapiens, UniProt P00747)
Sequence (P00747 97-580 limits assumed): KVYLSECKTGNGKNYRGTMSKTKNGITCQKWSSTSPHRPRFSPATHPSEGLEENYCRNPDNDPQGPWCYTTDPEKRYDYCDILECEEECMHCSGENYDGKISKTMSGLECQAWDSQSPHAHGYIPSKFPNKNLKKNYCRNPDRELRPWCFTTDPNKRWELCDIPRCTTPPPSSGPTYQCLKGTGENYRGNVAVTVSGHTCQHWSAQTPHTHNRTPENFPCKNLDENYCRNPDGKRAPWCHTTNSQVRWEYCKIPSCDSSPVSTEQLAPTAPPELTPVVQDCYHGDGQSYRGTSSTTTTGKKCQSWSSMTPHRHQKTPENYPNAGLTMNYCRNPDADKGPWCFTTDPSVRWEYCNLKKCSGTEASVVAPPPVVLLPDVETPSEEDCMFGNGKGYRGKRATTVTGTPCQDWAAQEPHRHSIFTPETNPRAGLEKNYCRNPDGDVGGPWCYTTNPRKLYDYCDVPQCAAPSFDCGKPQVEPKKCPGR
Sequence (P00747 581-810 limits assumed): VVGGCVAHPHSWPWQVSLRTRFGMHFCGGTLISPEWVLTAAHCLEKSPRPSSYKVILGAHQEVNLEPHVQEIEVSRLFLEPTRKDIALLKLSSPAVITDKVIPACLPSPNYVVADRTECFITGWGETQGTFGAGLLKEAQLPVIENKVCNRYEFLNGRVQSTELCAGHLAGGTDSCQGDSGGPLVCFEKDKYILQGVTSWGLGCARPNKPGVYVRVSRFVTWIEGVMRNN
protocolDescription: Inhibition of Human Serine Protease Plasmin
pKi: −log10 of the molar value.
testReadout: pKi

- smilesRecord: "N=C(N)c1ccc2[nH]c(-c3cccc(Br)c3O)cc2c1"
  numericReadout: 6.60
- smilesRecord: "COc1c(-c2ccccc2)cccc1-c1cc2cc(C(=N)N)ccc2[nH]1"
  numericReadout: 4.59
- smilesRecord: "Cc1cc(-c2ccccc2)c(O)c(-c2cc3cc(C(=N)N)ccc3[nH]2)c1"
  numericReadout: 6.60
- smilesRecord: "N=C(N)c1ccc2[nH]c(-c3ccccc3O)cc2c1"
  numericReadout: 4.92
- smilesRecord: "N=C(N)c1ccc2[nH]c(-c3cc(Br)cc(-c4ccccc4)c3O)cc2c1"
  numericReadout: 6.46
- smilesRecord: "N=C(N)c1ccc2[nH]c(-c3cc(Cl)cc(-c4ccccc4)c3O)cc2c1"
  numericReadout: 6.54

* * *

assayedTarget: Plasminogen (Homo sapiens, UniProt P00747)
protocolDescription: Inhibition of Human Serine Protease Plasmin

- smilesRecord: "N=C(N)c1ccc2nc(-c3c(O)cccc3O)[nH]c2c1"
  unitName: "µM"
  Ki: 7.5
- smilesRecord: "N=C(N)c1ccc2nc(-c3cc(Cl)cc(-c4ccccc4)c3O)[nH]c2c1"
  unitName: "µM"
  Ki: 4.1
- smilesRecord: "N=C(N)c1ccc2[nH]c(-c3cccc(-c4ccccc4)c3O)cc2c1"
  unitName: "µM"
  Ki: 0.1
- smilesRecord: "N=C(N)c1ccc2nc(-c3cc([N+](=O)[O-])ccc3O)[nH]c2c1"
  unitName: "µM"
  Ki: 41
- smilesRecord: "N=C(N)c1ccc2[nH]c(-c3cc(Br)cc(Br)c3O)cc2c1"
  unitName: "µM"
  Ki: 0.9
- smilesRecord: "N=C(N)c1ccc2nc(-c3cccc(-c4ccccc4)c3O)[nH]c2c1"
  unitName: "µM"
  Ki: 5
